# Target or test system: SHP2 protein (Homo sapiens)
# Protocol description: Measurement of SHP2 protein degradation in MV-4-11 cells (western blotting)
# Format: cell-based
# Parameters: endogenous in cells
# Test parameters: 0.01 μM, harvested after 24 hours
Measurement label: SHP2% degradation (%)

Examples with their reported SHP2% degradation follow.
Which SHP2% degradation is reported for this compound? "Cc1ncsc1-c1ccc(CNC(=O)[C@@H]2C[C@@H](O)CN2C(=O)[C@@H](NC(=O)C2(F)CC2)C(C)(C)C)c(OC2CCN(C(=O)[C@H]3C[C@@H](Nc4nccc(Sc5cnc(N6CCC(C)(N)CC6)cn5)c4Cl)C3)CC2)c1"
81.5

Which SHP2% degradation is reported for this compound? "Cc1ncsc1-c1ccc(CNC(=O)[C@@H]2C[C@@H](O)CN2C(=O)[C@@H](NC(=O)C2(F)CC2)C(C)(C)C)c(O[C@H]2CC[C@H](C(=O)N3CC(Nc4nccc(Sc5cnc(N6CCC(C)(N)CC6)cn5)c4Cl)C3)CC2)c1"
81.1

Which SHP2% degradation is reported for this compound? "Cc1ncsc1-c1ccc(CNC(=O)[C@@H]2C[C@@H](O)CN2C(=O)[C@@H](NC(=O)C2(F)CC2)C(C)(C)C)c(OC2CCN(C(=O)[C@H]3C[C@@H](Nc4nccc(Sc5cnc(N6CCC(C)(CN)CC6)cn5)c4Cl)C3)CC2)c1"
81.7

a: Cc1ncsc1-c1ccc(CNC(=O)[C@@H]2C[C@@H](O)CN2C(=O)[C@@H](NC(=O)C2(F)CC2)C(C)(C)C)c(OC2CCN(C(=O)[C@H]3C[C@H](Nc4nccc(Sc5cnc(N6CCC(C)(CN)CC6)cn5)c4Cl)C3)CC2)c1
b: Cc1ncsc1-c1ccc(CNC(=O)[C@@H]2C[C@@H](O)CN2C(=O)[C@@H](NC(=O)C2(F)CC2)C(C)(C)C)c(O[C@H]2CC[C@H](C(=O)N3CC(Nc4cccc(Oc5cnc(N6CCC(C)(CN)CC6)cn5)c4Cl)C3)CC2)c1
c: Cc1ncsc1-c1ccc(CNC(=O)[C@@H]2C[C@@H](O)CN2C(=O)[C@@H](NC(=O)C2(F)CC2)C(C)(C)C)c(OCCN2CCN(CCNc3cccc(Sc4cnc(N5CCC(C)(CN)CC5)cn4)c3Cl)CC2)c1
Let's sort these by SHP2% degradation, smallest first. Go ahead? # list labels per requested ordering
b, c, a
